Measured Target: T1, huNav1.7α + β1 (human)
T1 construct: HEK293 cells; also called huNav1.7-beta1; huNav1.7-β1
Assay Name: competition FACS vs EC25 of F103275B05(N93R), HEK
Listed next: entries and their corresponding pIC50.
Scale for pIC50: -log10 of concentration given in mol/L; no unit attached.

Requested read-out: pIC50. Entry: F010300468 (VHH, also called F0103275B05(N93R) + FLAG3-HIS6; F103275B05(N93R) + FLAG3-HIS6) VHH: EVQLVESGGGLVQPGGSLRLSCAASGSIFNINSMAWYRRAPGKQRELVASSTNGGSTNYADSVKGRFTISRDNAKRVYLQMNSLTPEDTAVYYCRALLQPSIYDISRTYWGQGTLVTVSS
7.17

Requested read-out: pIC50. Entry: F010302375 (bispecific antibody, also called F0103275B05(E1D, N93R)-50GS-F0103478E09(L108Q)-FLAG3-HIS6) DVQLVESGGGLVQPGGSLRLSCAASGSIFNINSMAWYRRAPGKQRELVASSTNGGSTNYADSVKGRFTISRDNAKRVYLQMNSLTPEDTAVYYCRALLQPSIYDISRTYWGQGTLVTVSSGGGGSGGGGSGGGGSGGGGSGGGGSGGGGSGGGGSGGGGSGGGGSGGGGSEVQLVESGGGLVQAGGSLRLSCAASGRAFSTLAMGWFRQAPGKEREFVAAISRNGNNSATGDSLKGRFTISRDSTKSTVFLQMNTLKPEDTAVYYCAAISTPSASHPYVRKESYRYWGQGTQVTVSSGAADYKDHDGDYKDHDIDYKDDDDKGAAHHHHHH
8.37

Requested read-out: pIC50. Entry: F010302380 (bispecific antibody, also called F0103275B05(E1D, N93R)-50GS-F0103505D08(L108Q)-FLAG3-HIS6) DVQLVESGGGLVQPGGSLRLSCAASGSIFNINSMAWYRRAPGKQRELVASSTNGGSTNYADSVKGRFTISRDNAKRVYLQMNSLTPEDTAVYYCRALLQPSIYDISRTYWGQGTLVTVSSGGGGSGGGGSGGGGSGGGGSGGGGSGGGGSGGGGSGGGGSGGGGSGGGGSEVQLVESGGGLVQAGGSLRLSCVTSGRTSDLSTMNWFRQAPGKEREFVARITRRGSTYYAESVKERFIISRDNAKNTVYLQMNSLKPEDTANYYCTAASEMGYHYRGQGTQVTVSSGAADYKDHDGDYKDHDIDYKDDDDKGAAHHHHHH
6.96
